test system: HepG2; test: GSK_TCMDC: Percent inhibition of human HepG2 cell line. Test compounds present at 10uM.; type: functional
PROPERTY: Inhibition (%)
# unit: % | format: bare number

The following compounds have reported results that may help.
>>> measured_value("COc1ccc(CC(=O)Nc2ccc(-c3cccc(-c4nc5cccc(C)c5[nH]4)c3)cc2)cc1O")
6
>>> measured_value("COc1ccc2[nH]ccc(=NN=Cc3cccnc3)c2c1")
0
>>> measured_value("O=C(/C=C/c1ccc(Cl)c(Cl)c1)NCCCCCN1CCC(NC(=O)Nc2ccccc2F)CC1")
14
>>> measured_value("O=C(CCNc1ccnc(NCCc2ccccc2)n1)Nc1ccccc1.O=C(O)C(F)(F)F")
7
>>> measured_value("Cc1cccc2nc(-c3cccc(-c4ccc(NC(=O)C(C)CN5CCN(C)CC5)cc4)c3)[nH]c12 (centres undefined)")
7

Request: Which Inhibition is reported for this compound? Cc1ccccc1Cc1cccc(/N=C(\N)Nc2ccc(Cl)cc2)n1
Response: 48

Request: Which Inhibition value belongs to O=C(Nc1ccc(OC2CCN(Cc3ccc(F)cc3)CC2)c(Cl)c1)c1cccs1.O=C(O)C(F)(F)F ?
Response: 7

Request: Please give the measured Inhibition for this compound: O=C(c1cc(-c2cccs2)n[nH]1)N1CCN(S(=O)(=O)c2ccc(Cl)cc2)CC1
Response: 0

Request: Would you mind telling me what Inhibition value was observed for O=C(Cc1c[nH]cn1)Nc1ccc(-c2ccc(-c3nc4cc(F)ccc4[nH]3)cc2)cc1 ?
Response: 39
